ASSAY METHOD TEXT: Solubility of Compound 1 in various solvents
Format: physicochemical
CONDITION DETAILS: MeOH:anisole (1:1), 50 °C, organic solvent or mixture; read-out: Solubility at 50° C.
MEASURED PARAMETER: solubility

Consider O=C(NCc1ncn2ccc(Cl)c(F)c12)c1cn(Cc2cn3cc(C4CC4)ccc3n2)nn1 [Compound 1] . Its measured solubility is < 10000 µg/mL

----------
ASSAY METHOD TEXT: Solubility of Compound 1 in various solvents
Format: physicochemical
CONDITION DETAILS: MeOH:Chlorobenzene (1:1), 50 °C, organic solvent or mixture; read-out: Solubility at 50° C.
Experimental: Solubility of >10 mg/mL was only observed in DMSO, NMP and MeOH:DCM 1:3 at 50° C.
MEASURED PARAMETER: solubility

Consider O=C(NCc1ncn2ccc(Cl)c(F)c12)c1cn(Cc2cn3cc(C4CC4)ccc3n2)nn1 . Its measured solubility is < 10000 µg/mL

----------
ASSAY METHOD TEXT: Solubility of Compound 1 in various solvents
Format: physicochemical
CONDITION DETAILS: Acetonitrile, 50 °C, organic solvent or mixture; read-out: Solubility at 50° C.
MEASURED PARAMETER: solubility

Consider O=C(NCc1ncn2ccc(Cl)c(F)c12)c1cn(Cc2cn3cc(C4CC4)ccc3n2)nn1 . Its measured solubility is < 10000 µg/mL

----------
ASSAY METHOD TEXT: Storage for one week at 40° C./75% RH and 25° C./97% RH, XRPD
Format: physicochemical
CONDITION DETAILS: one week; material isolated from salt/cocrystal screening experiments
MEASURED PARAMETER: Storage 40° C./75% RH, XRPD

>  <SAMPLE SMILES>
O=C(NCc1ncn2ccc(Cl)c(F)c12)c1cn(Cc2cn3cc(C4CC4)ccc3n2)nn1.O=C(O)/C=C/C(=O)O

>  <MEASURED PARAMETER>
Storage 40° C./75% RH, XRPD

>  <RESULT>
unchanged

$$$$
>  <SAMPLE SMILES>
O=C(NCc1ncn2ccc(Cl)c(F)c12)c1cn(Cc2cn3cc(C4CC4)ccc3n2)nn1.O=C(O)C(O)C(O)C(=O)O

>  <MEASURED PARAMETER>
Storage 40° C./75% RH, XRPD

>  <RESULT>
unchanged

$$$$

----------
ASSAY METHOD TEXT: Gravimetric vapour sorption (GVS) analysis
Assay type: physicochemical
CONDITION DETAILS: between 0 and 90% RH
MEASURED PARAMETER: GVS mass increase (%)
Write the value in % as a bare number.

Consider O=C(NCc1ncn2ccc(Cl)c(F)c12)c1cn(Cc2cn3cc(C4CC4)ccc3n2)nn1.O=C(O)/C=C/C(=O)O . Its measured GVS mass increase is 0.6

Consider O=C(NCc1ncn2ccc(Cl)c(F)c12)c1cn(Cc2cn3cc(C4CC4)ccc3n2)nn1.O=C(O)C(O)C(O)C(=O)O . Its measured GVS mass increase is 3.4

Consider O=C(NCc1ncn2ccc(Cl)c(F)c12)c1cn(Cc2cn3cc(C4CC4)ccc3n2)nn1 [Compound 1 Form 3] . Its measured GVS mass increase is 0.5

Consider O=C(NCc1ncn2ccc(Cl)c(F)c12)c1cn(Cc2cn3cc(C4CC4)ccc3n2)nn1.O=C(O)CCC(=O)O . Its measured GVS mass increase is 0.16

Consider O=C(NCc1ncn2ccc(Cl)c(F)c12)c1cn(Cc2cn3cc(C4CC4)ccc3n2)nn1.O=C(O)C(=O)O . Its measured GVS mass increase is 0.6

Consider O=C(NCc1ncn2ccc(Cl)c(F)c12)c1cn(Cc2cn3cc(C4CC4)ccc3n2)nn1.O=C(O)C[C@H](O)C(=O)O . Its measured GVS mass increase is 0.22

Consider O=C(NCc1ncn2ccc(Cl)c(F)c12)c1cn(Cc2cn3cc(C4CC4)ccc3n2)nn1.O=P(O)(O)O . Its measured GVS mass increase is 1.2

----------
ASSAY METHOD TEXT: Gravimetric vapour sorption (GVS) analysis
Format: physicochemical
CONDITION DETAILS: classification in words
MEASURED PARAMETER: GVS hygroscopicity

>  <MOLECULE>
O=C(NCc1ncn2ccc(Cl)c(F)c12)c1cn(Cc2cn3cc(C4CC4)ccc3n2)nn1.O=C(O)C(=O)O [Compound 6 Pattern 4]

>  <MEASURED PARAMETER>
GVS hygroscopicity

>  <RESULT>
slightly hygroscopic

$$$$
>  <MOLECULE>
O=C(NCc1ncn2ccc(Cl)c(F)c12)c1cn(Cc2cn3cc(C4CC4)ccc3n2)nn1.O=C(O)C(=O)O [Compound 6 Pattern 1]

>  <MEASURED PARAMETER>
GVS hygroscopicity

>  <RESULT>
slightly hygroscopic

$$$$
>  <MOLECULE>
O=C(NCc1ncn2ccc(Cl)c(F)c12)c1cn(Cc2cn3cc(C4CC4)ccc3n2)nn1 [Compound 1 Form 1]

>  <MEASURED PARAMETER>
GVS hygroscopicity

>  <RESULT>
slightly hygroscopic

$$$$

----------
ASSAY METHOD TEXT: Solubility of Compound 1 in various solvents
Type: physicochemical
CONDITION DETAILS: TBME, 50 °C, organic solvent or mixture; read-out: Solubility at 50° C.
MEASURED PARAMETER: solubility

Consider O=C(NCc1ncn2ccc(Cl)c(F)c12)c1cn(Cc2cn3cc(C4CC4)ccc3n2)nn1 . Its measured solubility is < 10000 µg/mL

----------
ASSAY METHOD TEXT: Solubility of Compound 1 in various solvents
Assay type: physicochemical
CONDITION DETAILS: DMAC, 50 °C, organic solvent or mixture; read-out: Solubility at 50° C.
MEASURED PARAMETER: solubility

Consider O=C(NCc1ncn2ccc(Cl)c(F)c12)c1cn(Cc2cn3cc(C4CC4)ccc3n2)nn1 . Its measured solubility is < 10 mg/mL

----------
ASSAY METHOD TEXT: Storage for one week at 40° C./75% RH and 25° C./97% RH, XRPD
Assay type: physicochemical
CONDITION DETAILS: one week (7 days); scaled-up / characterised material

>  <COMPOUND>
O=C(NCc1ncn2ccc(Cl)c(F)c12)c1cn(Cc2cn3cc(C4CC4)ccc3n2)nn1.O=C(O)C(O)C(O)C(=O)O [Compound 7]

>  <Storage 25° C./97% RH, XRPD>
unchanged by XRPD

$$$$
>  <COMPOUND>
O=C(NCc1ncn2ccc(Cl)c(F)c12)c1cn(Cc2cn3cc(C4CC4)ccc3n2)nn1.O=C(O)/C=C/C(=O)O [Compound 9]

>  <Storage 25° C./97% RH, XRPD>
unchanged by XRPD

$$$$
>  <COMPOUND>
O=C(NCc1ncn2ccc(Cl)c(F)c12)c1cn(Cc2cn3cc(C4CC4)ccc3n2)nn1.O=C(O)C(=O)O [Compound 6 Pattern 4]

>  <Storage 25° C./97% RH, XRPD>
unchanged by XRPD

$$$$

----------
ASSAY METHOD TEXT: Solubility of Compound 1 in various solvents
Type: physicochemical
CONDITION DETAILS: n-heptane, 50 °C, organic solvent or mixture; read-out: Solubility at 50° C.
MEASURED PARAMETER: solubility

Consider O=C(NCc1ncn2ccc(Cl)c(F)c12)c1cn(Cc2cn3cc(C4CC4)ccc3n2)nn1 . Its measured solubility is < 10000 µg/mL

----------
ASSAY METHOD TEXT: Solubility of Compound 1 in various solvents
Assay type: physicochemical
CONDITION DETAILS: Methanol, 50 °C, organic solvent or mixture; read-out: Solubility at 50° C.
MEASURED PARAMETER: solubility

Consider O=C(NCc1ncn2ccc(Cl)c(F)c12)c1cn(Cc2cn3cc(C4CC4)ccc3n2)nn1 [Compound 1] . Its measured solubility is < 10000 µg/mL
